Could you please report measured viability at 28.5 h, 10 µM for the items listed next?
# PROCEDURE DETAILS: in vitro
# ASSAY CONTEXT: human, hela cells, % viability
Answers are plain numbers, in %.

MOLECULE	REPORTED METRIC	UNIT TEXT	TEST RESULT
Cc1nn2c(CN(C(=O)COc3ccccc3)c3ccccc3)nnc2c2ccccc12	viability at 28.5 h, 10 µM	%	83.4
COc1cc(NC(=O)N2CCCCC2CO)cc(OC)c1OC (centres unmarked)	viability at 28.5 h, 10 µM	%	92
COc1cncc(-c2cc(NC3CCCCC3)ncn2)c1	viability at 28.5 h, 10 µM	%	96.5
CCC(=O)N1CCc2cc(C(O)CN3CCCCC3C)ccc21 (centres unmarked)	viability at 28.5 h, 10 µM	%	105
O=C(Nc1ccccc1-n1cccc1)C1Cc2c([nH]c3ccccc23)C2(CCN(Cc3ccccc3)C2)N1 (centres unmarked)	viability at 28.5 h, 10 µM	%	95.9

Can you give me viability at 28.5 h, 10 µM for all of these, one by one?
1. COc1cccc(COc2nccnc2/C=C/c2ccccc2)c1OC
2. Cc1cc(Cn2nnc(-c3ccc(Br)cc3)n2)cc(C)c1O
3. CC(Oc1ccccc1Br)c1nc(-c2nonc2N)no1 (centres unmarked)
4. CC1CCc2c(C(=O)Nc3ncc(Cc4ccccc4)s3)csc2C1 (centres unmarked)
5. c1cnc(N2CCN(CC3CC3)CC2)c(OCCN2CCOCC2)n1

[89.3, 119, 86.2, 94.6, 87.2]

Each of the following entries comes with a recorded value; kindly state viability at 28.5 h, 10 µM for each.
1. COc1ccccc1CC(=O)N1CCCC1c1nc2ccccc2[nH]1 (centres unmarked)
2. Cc1cc(NC(=O)c2cc([N+](=O)[O-])ccc2Cl)nc2c1c(=O)oc1ccccc12
3. CC(C)c1cc(C(=O)N2CCN(C)C(=O)C2Cc2ccccc2-c2ccc(F)cc2)[nH]n1 (centres unmarked)
4. O=C1NC(Nc2ccc(SCCN3CCOCC3)cc2)c2ccccc21 (centres unmarked)
5. C/N=C1/SC(CC(=O)Nc2cccc(C(=O)O)c2)C(=O)N1C (centres unmarked)

1: 94.6; 2: 90.8; 3: 92.1; 4: 93.6; 5: 99.8

Give viability at 28.5 h, 10 µM for each listed item.
1. O=C(O)c1cccc(NC(=O)c2ccc(S(=O)(=O)N3CCCCC3)cc2)c1
2. O=c1[nH]c2ncc(-c3ccc(OC(F)(F)F)cc3)nc2n1Cc1ccc(Cl)cc1
3. O=C(c1cccs1)N1CCCN(c2nccc(C(F)(F)F)n2)CC1
4. CCC1CCCCN1C(=O)c1ccc(C)c(Cl)c1 (centres unmarked)
5. COc1cc2c(cc1OC)C1c3ccccc3NC(c3ccc(F)cc3)N1CC2 (centres unmarked)
6. CCNc1nc(-c2ccc(Oc3ccccc3)cc2)cn2ccnc12
7. CC(C)(O)c1cc(CC2(NCc3ccco3)COC2)no1
8. O=C(CSc1nc(O)c2c(-c3ccccc3)csc2n1)NCCc1ccccc1

1. 86.1
2. 103
3. 89.4
4. 91.7
5. 102
6. 94.6
7. 92.6
8. 97.2

Quick request: viability at 28.5 h, 10 µM for each listed item, please.
1. COC(=O)C1CC(O)CC1C(=O)N1CCCC1 (centres unmarked)
2. CC(=O)NCCSc1nccc(C(F)(F)F)n1
3. COc1cc(OC)c(NS(=O)(=O)c2cc(C(=O)O)ccc2C)cc1Cl

1: 89.6; 2: 102; 3: 101
